# Test system: 22RV1 (Prostate Carcinoma)
# ASSAY: combination Emax (second highest fraction inhibited in the dose matrix, 72 h); higher = more inhibition; extreme values may be limits of the assay
METRIC: combination Emax
Give the figure by itself; no unit, no explanation.

Input line: I'd like to know its combination Emax. The compound in question is CN(CCO)CC[C@H](CSc1ccccc1)Nc1ccc(S(=O)(=O)NC(=O)c2ccc(N3CCC([C@@H](O)c4ccccc4-c4ccc(Cl)cc4)CC3)cc2)cc1S(=O)(=O)C(F)(F)F [AZD4320] + CC(=O)O[C@H]1C(=O)[C@@]2(C)[C@H]([C@H](OC(=O)c3ccccc3)[C@]3(O)C[C@H](OC(=O)[C@H](O)[C@@H](NC(=O)c4ccccc4)c4ccccc4)C(C)=C1C3(C)C)[C@]1(OC(C)=O)CO[C@@H]1C[C@@H]2O [Paclitaxel] (first compound max 1 µM, 7x7, partner max 3 µM)
Output line: 0.845

Input line: I'd like to know its combination Emax. The compound in question is CN(CCO)CC[C@H](CSc1ccccc1)Nc1ccc(S(=O)(=O)NC(=O)c2ccc(N3CCC([C@@H](O)c4ccccc4-c4ccc(Cl)cc4)CC3)cc2)cc1S(=O)(=O)C(F)(F)F [AZD4320] + Cc1cc2ncnn2cc1Nc1ncc2c(n1)n(C1CCOCC1)c(=O)n2C [AZD7648] (first compound max 1 µM, 7x7, partner max 10 µM)
Output line: 0.426

Input line: I'd like to know its combination Emax. The compound in question is CCN(CCO)CCCOc1ccc2c(Nc3cc(CC(=O)Nc4cccc(F)c4)[nH]n3)ncnc2c1 [AZD2811] + O=C(c1cc(Cc2n[nH]c(=O)c3ccccc23)ccc1F)N1CCN(C(=O)C2CC2)CC1 [Olaparib] (first compound max 1 µM, 7x7, partner max 10 µM)
Output line: 0.337
